meta.source: patent US10689387B2

- System: LTB4 production in fresh human whole blood
- PROTOCOL_TEXT: FLAP Whole Blood Assay (Test B), inhibition of LTB4 production
- Format: cell-based
- EXPERIMENTAL_CONDITIONS: method B: 4 h incubation at 37° C., calcium ionophore A23187 stimulation
REPORTED_PROPERTY: IC50 (nM)

INSERT INTO measurements (structure_notation, unit_name, obs_value) VALUES
  ('Cc1cc(-c2ccc(C(=O)[C@@H]3CCCC[C@H]3C(=O)Nc3cnn4c3C(=O)NCC4)cc2)[nH]n1', 'nM', 40);
